target: Alpha-1A adrenergic receptor (Homo sapiens, UniProt P35348); experiment: Binding affinity to human alpha1A adrenergic receptor transfected in COS1 cells assessed as compound required to occupy 50% of receptor; type: cell-based, COS-1
Sequence (P35348 whole entry): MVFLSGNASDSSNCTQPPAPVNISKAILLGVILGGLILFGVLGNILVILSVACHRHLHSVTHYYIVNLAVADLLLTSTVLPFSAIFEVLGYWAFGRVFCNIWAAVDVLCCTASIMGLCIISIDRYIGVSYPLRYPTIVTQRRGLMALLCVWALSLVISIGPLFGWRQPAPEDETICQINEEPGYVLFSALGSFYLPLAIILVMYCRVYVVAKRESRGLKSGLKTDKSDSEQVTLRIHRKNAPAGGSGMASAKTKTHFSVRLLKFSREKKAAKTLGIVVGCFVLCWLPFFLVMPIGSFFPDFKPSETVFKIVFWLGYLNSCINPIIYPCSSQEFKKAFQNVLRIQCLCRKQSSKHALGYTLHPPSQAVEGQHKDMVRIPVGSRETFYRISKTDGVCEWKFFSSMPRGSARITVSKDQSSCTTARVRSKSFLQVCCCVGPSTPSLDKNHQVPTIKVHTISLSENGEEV
pKi: −log10 of the molar value.
measure: pKi

> print(dat)
                                structure  measure  measured.result
1  Cc1ccc2c(NCCNc3ccnc4cc(C)ccc34)ccnc2c1      pKi             6.92

[1] Cc1ccc2nccc(NCCNc3ccnc4ccc(C)cc34)c2c1
[2] Cc1ccc2nccc(NCCCCCCCNc3ccnc4ccc(C)cc34)c2c1
[3] c1ccc2c(NCCNc3ccnc4ccccc34)ccnc2c1
[4] COc1ccc2c(NCCNc3ccnc4cc(OC)ccc34)ccnc2c1
Write the entries in order, lowest recorded pKi first. Lab note: record answer as labels in requested order.
2, 1, 4, 3
(2: 6.21, 1: 6.87, 4: 7.16, 3: 7.59)

###

biological target: Alpha-1D adrenergic receptor (Homo sapiens, UniProt P25100); experiment: Binding affinity to human alpha1D adrenergic receptor transfected in COS1 cells assessed as compound required to occupy 50% of receptor; type: cell-based, COS-1
Sequence (P25100 whole entry): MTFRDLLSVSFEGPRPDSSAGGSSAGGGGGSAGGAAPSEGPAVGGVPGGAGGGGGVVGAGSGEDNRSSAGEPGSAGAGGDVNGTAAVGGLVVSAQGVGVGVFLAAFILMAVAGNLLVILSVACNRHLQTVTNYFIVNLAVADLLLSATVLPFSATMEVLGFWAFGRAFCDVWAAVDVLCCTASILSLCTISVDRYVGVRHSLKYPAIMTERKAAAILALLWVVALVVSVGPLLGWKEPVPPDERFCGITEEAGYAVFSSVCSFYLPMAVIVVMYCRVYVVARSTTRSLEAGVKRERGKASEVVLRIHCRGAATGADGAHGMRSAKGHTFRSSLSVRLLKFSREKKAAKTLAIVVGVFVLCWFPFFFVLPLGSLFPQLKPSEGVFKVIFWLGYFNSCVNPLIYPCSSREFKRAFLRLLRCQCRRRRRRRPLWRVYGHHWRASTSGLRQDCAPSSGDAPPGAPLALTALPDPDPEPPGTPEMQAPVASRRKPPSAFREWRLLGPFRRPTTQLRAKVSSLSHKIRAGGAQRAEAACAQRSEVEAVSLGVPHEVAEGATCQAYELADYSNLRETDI
pKi: −log10 of the molar value.
measure: pKi

> print(dat)
                                  structure  measured.result
1   c1ccc2c(NCCCCCCCNc3ccnc4ccccc34)ccnc2c1             6.51
2    Cc1cccc2c(NCCNc3ccnc4c(C)cccc34)ccnc12             6.32
3  Cc1ccc2c(NCCCCCCCNc3ccnc4cc(C)ccc34)ccnc2c1             6.31
4        c1ccc2c(NCCNc3ccnc4ccccc34)ccnc2c1             6.48
5  COc1ccc2nccc(NCCCCCCCNc3ccnc4ccc(OC)cc34)c2c1             6.43
